Biological target: MST1 (Homo sapiens, UniProt Q13043)
Sequence (Q13043 1-487): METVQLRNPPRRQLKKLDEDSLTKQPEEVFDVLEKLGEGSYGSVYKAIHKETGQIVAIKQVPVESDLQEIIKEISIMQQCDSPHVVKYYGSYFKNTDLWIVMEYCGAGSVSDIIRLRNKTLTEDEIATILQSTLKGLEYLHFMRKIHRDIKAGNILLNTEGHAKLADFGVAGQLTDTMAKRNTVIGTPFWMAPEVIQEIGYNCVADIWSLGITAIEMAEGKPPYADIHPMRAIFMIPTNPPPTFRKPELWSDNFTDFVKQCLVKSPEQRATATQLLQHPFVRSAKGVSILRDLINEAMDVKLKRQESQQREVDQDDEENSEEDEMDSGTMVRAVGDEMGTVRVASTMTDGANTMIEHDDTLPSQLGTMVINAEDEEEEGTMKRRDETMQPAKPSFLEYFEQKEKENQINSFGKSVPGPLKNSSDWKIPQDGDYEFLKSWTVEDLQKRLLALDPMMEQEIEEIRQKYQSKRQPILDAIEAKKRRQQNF
Test: In vitro measurement of MST1 inhibition (Z′-Lyte kinase assay)
Format: biochemical
Settings: 1 μM ATP; read-out: IC50 (μM) 1 μM ATP
Method: Assays were performed in low-volume 384-well black proxiplates (Perkin Elmer, PE-Blk-Proxi-6008269). Eight compounds were first diluted into LDV (Echo) plates using a Multiprobe, at a starting concentration of 1 mM compound in 100% DMSO. Using the ECHO, 75 nl compound was pinged into 384-well proxiplates. […] All wells were read on a Tecan at 400 nm excitation and 460 nm/530 nm emission. […]
MEASUREMENT LABEL: IC50

[[record]]
compound_structure = "CN(C1CC1)S(=O)(=O)c1ccc(-c2cnc(N)c(-c3ccc4c(c3)NCCNC4=O)n2)cc1"
readout_value = "< 0.01 µM"


Give one value of IC50 per listed compound.
1. CCN(C)S(=O)(=O)c1ccc(-c2cnc(N)c(-c3ccc4c(c3)CCNC4=O)n2)nc1
2. CN1CCc2cc(-c3nc(-c4ccc(S(=O)(=O)N(C)C5CC5)cc4)cnc3N)ccc2C1=O
3. CC(C)(O)c1ccc(-c2cnc(N)c(-c3ccc4c(c3)CCNC4=O)n2)cc1
4. Nc1ncc(-c2ccc(S(=O)(=O)NC3CCC3)cc2)cc1-c1ccc2c(c1)CCNC2=O
5. N#C[C@]1(c2ccc(-c3cnc(N)c(-c4ccc5c(c4)CCNC5=O)n3)cc2)[C@@H]2COC[C@@H]21

Response line:
["< 0.01 µM", "< 0.15 µM", "< 0.05 µM", "< 0.01 µM", "< 0.05 µM"]

---

target: MST1 (Homo sapiens, UniProt Q13043); experiment: In vitro measurement of MST1 inhibition (Z′-Lyte kinase assay); type: biochemical; conditions: 50 μM ATP; read-out: IC50 (μM) 50 μM ATP
MEASUREMENT LABEL: IC50

For orientation, consider the following solved cases.
[[record]]
molecule = "CCNS(=O)(=O)c1ccc(-c2cnc(N)c(-c3ccc4c(c3)CCNC4=O)n2)cc1"
readout_value = "< 0.01 µM"

[[record]]
molecule = "Nc1ncc(-c2ccc(S(=O)(=O)NC3CC3)cc2)nc1-c1ccc2c(c1)CCNC2=O"
readout_value = "< 0.01 µM"

[[record]]
molecule = "CC(C)(C#N)c1ccc(-c2cnc(N)c(-c3ccc4c(c3)CCNC4=O)c2)cn1"
readout_value = "< 0.05 µM"

[[record]]
molecule = "CN(C1CC1)S(=O)(=O)c1ccc(-c2cnc(N)c(-c3ccc4c(c3)CCNC4=O)n2)cc1"
readout_value = "< 0.01 µM"


Would you mind giving IC50 for every molecule in the list below?
1. CNC1(c2ccc(-c3cnc(N)c(-c4ccc5c(c4)CCNC5=O)n3)cc2)CC1
2. CN(C1CC1)S(=O)(=O)c1ccc(-c2cnc(N)c(-c3ccc4c(c3)CCNC4=O)n2)nc1
3. N#CC1(c2ccc(-c3cnc(N)c(-c4ccc5c(=O)[nH]ccc5c4)n3)cc2)CC1

Response line:
1. < 0.01 µM
2. < 0.01 µM
3. < 0.01 µM

Batch: IC50 for all items listed.
1. Nc1ncc(-c2ccc3c(c2)CC(=O)N3)cc1-c1ccc2c(c1)CCNC2=O
2. CCN(C1CC1)S(=O)(=O)c1ccc(-c2cnc(N)c(-c3ccc4c(c3)CCNC4=O)n2)cc1
3. CN(Cc1ccc(-c2cnc(N)c(-c3ccc4c(c3)CCNC4=O)c2)cc1)C1CC1
4. Nc1ncc(-c2ccc(S(=O)(=O)N3CCCCC3)cc2)nc1-c1ccc2c(=O)[nH]ccc2c1
5. CC(C)(C)c1ccc(-c2cnc(N)c(-c3ccc4c(c3)CCNC4=O)n2)cc1
6. NC(=O)c1ccc(-c2cc(-c3ccc(S(=O)(=O)NC4CC4)cc3Cl)cnc2N)cc1
7. CC(C)(C)OC(=O)N1CC=C(c2cnc(N)c(-c3ccc4c(c3)CCNC4=O)c2)CC1
8. CCNS(=O)(=O)c1ccc(-c2cnc(N)c(C(=O)NC3CCCCC3)n2)cc1

Response line:
1: < 0.05 µM; 2: < 0.01 µM; 3: < 0.01 µM; 4: < 0.01 µM; 5: < 0.01 µM; 6: < 0.15 µM; 7: < 0.05 µM; 8: < 0.05 µM

Hi there! I need IC50 for each item below, if you can.
1. Nc1ncc(-c2ccc(C(=O)C(F)(F)F)cc2)nc1-c1ccc2c(c1)CCNC2=O
2. CC(Oc1ccc(-c2cnc(N)c(-c3ccc4c(c3)CCNC4=O)n2)cc1)C1CC1 (stereo not drawn)

Response line:
1: < 0.05 µM; 2: < 0.01 µM
